Some compounds, each annotated with its measured Volatilized fraction 24 h.
- PROTOCOL_SUMMARY: Volatility from spray deposit on non-permeable leaf cuticles
- Format: physicochemical
- EXPERIMENTAL_CONTEXT: pH 4, 24 h, test substances 50 g/L, pelargonic acid 30 g/L, Vorox 130 g/L
Write the number in % without appending the unit.

Before answering, review these 3 worked examples.
[[record]]
compound = "CCCCCCCCC(=O)O [Pelargonic acid, reference compound]"
property_label = "Volatilized fraction 24 h"
recorded_result = 78.9

[[record]]
compound = "CCCCCCCCC(=O)OCCOCCOCCOCCOCCOCCOCCOCCOC"
property_label = "Volatilized fraction 24 h"
recorded_result = 2.1

[[record]]
compound = "CCCCCCCCCCOCCOCCOCCOCCOCCOC(=O)CCCCCCCC"
property_label = "Volatilized fraction 24 h"
recorded_result = 11.7


Shifting focus to the compound that follows.
Req: What value of Volatilized fraction 24 h has been reported for the following compound? CCCCCCCCC(=O)OCCOCCOCCOCCCCCC
Resp: 14.7
